Assay: Turbidimetric solubility
Type: physicochemical
Settings: aqueous buffer, kinetic from dmso stock
value kind: solubility (µM)
# unit: µM | format: bare number

Consider the molecule `C[C@@H]1C[C@@H](NC(=O)c2ncc(-c3cc(C#N)ccc3OC3CC3)o2)CN1C#N` and give its measured solubility.
65

----------
System: P-glycoprotein (MDR1), human
Test: MDR1-MDCK flux assay
Assay type: in vitro ADME
Conditions: dog, read-out: MDR1-MDCK Effective Efflux Ratio
value kind: efflux ratio
No unit in the answer, please; the number alone is enough.

Give its efflux ratio value. Item: COC[C@@H]1C[C@@H](NC(=O)c2ncc(-c3cc(C#N)ccc3OC3CC3)o2)CN1C#N [Example 2]
15
